biological target: S. pyogenes SKKanGAS, kanamycin survival, BacTiterGlo, 6 h; assay: S. pyogenes SKKanGAS kanamycin growth inhibitors – SKKanGAS strain, luminescence, dose confirmation, streptokinase promoter inhibitor project, dose response (AID 1902);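 further: lower survival reflects blocked streptokinase promoter driving kanamycin resistance gene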
The source made the active and inactive calls.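 How the source made its calls: active means EC50 no more than a set limit of log units above the highest dose; inactive means the rest.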
Classes used: true (active), false (inactive)

[
  {
    "molecule": "CCc1ccc(/C=C2\\SC(=S)N(CCCC(=O)Nc3ccc(C(=O)O)cc3)C2=O)cc1",
    "labelClass": "true"
  },
  {
    "molecule": "c1ccc(CN2CCN(c3nc4ccccc4c4ccccc34)CC2)cc1",
    "labelClass": "true"
  },
  {
    "molecule": "CC(=O)N(CCC(Cc1ccccc1)c1ccc2c(c1)OCO2)Cc1ccc(Cl)cc1 (centres undefined)",
    "labelClass": "true"
  },
  {
    "molecule": "Cn1c(=O)c2c(nc(SCc3ccccc3)n2Cc2ccc(Cl)cc2)n(C)c1=O",
    "labelClass": "true"
  },
  {
    "molecule": "Cc1ccc(C)c(C(=O)COC(=O)c2cc(Cl)nc3ccccc23)c1",
    "labelClass": "true"
  },
  {
    "molecule": "COc1ccc(CCNC(=O)c2ccc(CNS(=O)(=O)c3ccc(C(C)(C)C)cc3)cc2)cc1OC",
    "labelClass": "true"
  },
  {
    "molecule": "Cc1ccc(Cn2nnc3c(=O)[nH]c(C4CCN(S(=O)(=O)c5cc(C)ccc5C)CC4)nc32)cc1",
    "labelClass": "true"
  },
  {
    "molecule": "CCC(=C/c1sc2ccc3ccccc3c2[n+]1C)/C=C1\\Sc2ccc3ccccc3c2N1C",
    "labelClass": "true"
  },
  {
    "molecule": "CC(C)c1ccc(NC(=O)NC(C)c2ccc3c(c2)OCO3)cc1 (centres undefined)",
    "labelClass": "false"
  },
  {
    "molecule": "Cc1cc2nc(CSc3ccccc3)cc(=O)n2[nH]1",
    "labelClass": "true"
  },
  {
    "molecule": "CC(=O)OCCCNc1cc(Sc2nc3ccccc3s2)c2nonc2c1[N+](=O)[O-]",
    "labelClass": "true"
  },
  {
    "molecule": "Fc1ccc(-c2csc3ncnc(N4CCc5ccccc5C4)c23)cc1",
    "labelClass": "true"
  },
  {
    "molecule": "O=C(NNC(=S)NC(=O)c1cccnc1)c1ccc(Cl)cc1",
    "labelClass": "true"
  },
  {
    "molecule": "N=C1S/C(=C\\c2ccco2)C(=O)N1c1nccs1",
    "labelClass": "true"
  },
  {
    "molecule": "Cc1cc(NC(=O)c2c(F)cccc2Cl)n(-c2nc3ccccc3[nH]2)n1",
    "labelClass": "true"
  },
  {
    "molecule": "COc1ccc(C2CC(c3ccccc3)=NN2C(=O)c2cccs2)cc1 (centres undefined)",
    "labelClass": "true"
  },
  {
    "molecule": "CC(C)(C)c1ccc(C(=O)Nc2nnc(C3=COCCO3)o2)cc1",
    "labelClass": "true"
  },
  {
    "molecule": "Cc1nn(CC(=O)Nc2c(F)c(F)cc(F)c2F)c(=O)c2cccn12",
    "labelClass": "false"
  },
  {
    "molecule": "CN(C)c1ccc(/C=C/c2ccc3ccccc3[n+]2C)cc1",
    "labelClass": "true"
  },
  {
    "molecule": "O=C1c2[nH]nc(-c3ccccc3O)c2C(c2cccc(Cl)c2)N1Cc1ccco1 (centres undefined)",
    "labelClass": "true"
  },
  {
    "molecule": "O=c1c2cc(Cl)ccc2nc(-c2ccc(Cl)c(Cl)c2)n1O",
    "labelClass": "true"
  },
  {
    "molecule": "CCc1sc(N(C(=O)Cc2ccccc2)c2cccc(F)c2)nc1-c1ccc(C)cc1",
    "labelClass": "true"
  },
  {
    "molecule": "O=C(Nc1ccc(F)cc1)c1nc2c(nnn2Cc2cccc3ccccc23)c(=O)[nH]1",
    "labelClass": "true"
  },
  {
    "molecule": "CC(=O)[C@]1(O)Cc2c(O)c3c(c(O)c2[C@@H](O[C@H]2C[C@H](N)[C@H](O)[C@H](C)O2)C1)C(=O)c1ccccc1C3=O",
    "labelClass": "true"
  },
  {
    "molecule": "CCCCn1c(/C=N/Nc2nc3ccccc3[nH]2)nc2ccccc21",
    "labelClass": "true"
  },
  {
    "molecule": "C=C(C)C1Cc2c(C)nn(-c3cccc4ccccc34)c2C1 (centres undefined)",
    "labelClass": "true"
  },
  {
    "molecule": "CCOC(=O)C1CCN(C(=O)c2ccc3c(=O)n4nc(Nc5cc(C)ccc5C)sc4nc3c2)CC1",
    "labelClass": "true"
  },
  {
    "molecule": "COc1ccc(N=Nc2ccc(O)c3ncccc23)cc1",
    "labelClass": "true"
  },
  {
    "molecule": "CCS(=O)(=O)c1nc(S(=O)(=O)c2ccc(C)cc2)c(NCCN2CCOCC2)s1",
    "labelClass": "false"
  },
  {
    "molecule": "Oc1c(Cl)cc(Cl)c2cccnc12",
    "labelClass": "true"
  },
  {
    "molecule": "O=C(Nc1nnc(-c2ccccn2)o1)c1cccc(Cl)c1",
    "labelClass": "true"
  },
  {
    "molecule": "CC1=Nc2ccccc2/C1=C/c1sc(=N)n(-c2nccs2)c1O",
    "labelClass": "true"
  },
  {
    "molecule": "Cc1nc(N2CCC(C)CC2)c2c(C)c(C(=O)Nc3ccccc3C(F)(F)F)sc2n1",
    "labelClass": "true"
  },
  {
    "molecule": "O=[N+]([O-])c1cc(C(F)(F)F)ccc1NCCNC(=S)Nc1ccc(Cl)cc1",
    "labelClass": "true"
  },
  {
    "molecule": "S=c1[nH]cnc2scc(-c3ccc(Cl)cc3)c12",
    "labelClass": "true"
  },
  {
    "molecule": "Oc1c(N=NC(=S)Nc2ccccc2F)c2ccccc2n1Cc1cccc(Cl)c1",
    "labelClass": "true"
  },
  {
    "molecule": "COc1ccc(NC(=S)Nc2nc(CC(=O)Nc3ccccc3OC)cs2)cc1",
    "labelClass": "true"
  },
  {
    "molecule": "CC(NS(=O)(=O)/C=C/c1ccccc1)C(=O)O (centres undefined)",
    "labelClass": "false"
  },
  {
    "molecule": "CC12CCC(C/C1=N\\N=C1\\NC(=O)/C(=C\\c3cccc(Br)c3)S1)C2(C)C (centres undefined)",
    "labelClass": "true"
  }
]

----------
target: S. pyogenes SKKanGAS, kanamycin survival, BacTiterGlo, 6 h; test: S. pyogenes SKKanGAS kanamycin growth inhibitors – SKKanGAS strain, luminescence, dose confirmation, streptokinase promoter inhibitor project, dose response (AID 1902);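 further: lower survival reflects blocked streptokinase promoter driving kanamycin resistance gene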
reportedProperty: EC50

[
  {
    "querySmiles": "NC(=O)c1cc(C(=O)Cc2ccccc2)c[nH]1",
    "reportedProperty": "EC50",
    "readoutValue": "2.23 µM"
  },
  {
    "querySmiles": "O=C(NNC(=O)c1cc(-c2ccc(Cl)cc2Cl)nc2ccccc12)Nc1ccccc1",
    "reportedProperty": "EC50",
    "readoutValue": "3.04 µM"
  },
  {
    "querySmiles": "CC1CCN(Cc2c(C(=O)N/N=C/c3cc(Br)ccc3O)nnn2-c2nonc2N)CC1",
    "reportedProperty": "EC50",
    "readoutValue": "10.2 µM"
  },
  {
    "querySmiles": "CCc1ccc2[nH]c(O)c(N=Nc3nc(-c4ccccc4)cs3)c2c1",
    "reportedProperty": "EC50",
    "readoutValue": "8.8 µM"
  }
]

----------
target: S. pyogenes SKKanGAS, kanamycin survival, BacTiterGlo, 6 h; experiment: S. pyogenes SKKanGAS kanamycin growth inhibitors – SKKanGAS strain, luminescence, dose confirmation, streptokinase promoter inhibitor project, dose response (AID 1902);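 further: lower survival reflects blocked streptokinase promoter driving kanamycin resistance gene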
Activity calls are given as the source filed them.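 The calls were made as follows: active = EC50 no more than a set limit of log units above the highest dose; inactive = the rest.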
Classes used: true (1) = active, false (0) = inactive

[
  {
    "molecule": "N=c1c2c(-c3ccccc3)c(-c3ccccc3)oc2ncn1Cc1ccco1",
    "labelClass": "true (1)"
  },
  {
    "molecule": "Cc1ccc(C)n1-c1sc2c(c1C#N)CCC(C)C2 (stereo unspecified)",
    "labelClass": "true (1)"
  },
  {
    "molecule": "Cc1cc(C)c(C)c(OCCCOc2cccc3cccnc23)c1",
    "labelClass": "true (1)"
  },
  {
    "molecule": "CSc1nc(Oc2ccc3ccccc3c2)c2sccc2n1",
    "labelClass": "true (1)"
  },
  {
    "molecule": "COc1ccc2nc(N3C(=O)CNC3=S)sc2c1",
    "labelClass": "true (1)"
  },
  {
    "molecule": "CC(C)=CCc1c2c(c(O)c3c(=O)c4c(oc13)-c1cc(O)c(O)cc1OC4C=C(C)C)C=CC(C)(C)O2 (stereo unspecified)",
    "labelClass": "true (1)"
  },
  {
    "molecule": "Cc1ccc(SCc2cc(=O)[nH]c(SCC(=O)Nc3cc(Cl)ccc3Cl)n2)cc1",
    "labelClass": "true (1)"
  },
  {
    "molecule": "O=C(N/N=C/c1cc(Cl)ccc1O)c1cccnc1",
    "labelClass": "true (1)"
  },
  {
    "molecule": "Cc1ccc(C)c(CSC2=NCCN2S(=O)(=O)c2ccccc2)c1",
    "labelClass": "true (1)"
  },
  {
    "molecule": "Cc1ccc(C2Oc3ccccc3C3=C2C(c2cccs2)n2ncnc2N3)cc1 (stereo unspecified)",
    "labelClass": "true (1)"
  },
  {
    "molecule": "O=C(NCC1CCCO1)c1cc2c([nH]c3ccccc32)c(-c2cccc(Cl)c2)n1 (stereo unspecified)",
    "labelClass": "true (1)"
  },
  {
    "molecule": "COc1ccc(N2CCN(C(=O)Cc3csc(NC(=O)Nc4ccccc4OC)n3)CC2)cc1",
    "labelClass": "true (1)"
  },
  {
    "molecule": "Cc1ccc(-n2cc3c(-c4cccc(Br)c4)nnc(C)c3n2)cc1",
    "labelClass": "true (1)"
  },
  {
    "molecule": "Cc1ccsc1C(=O)OCC(=O)c1cc2ccccc2o1",
    "labelClass": "false (0)"
  },
  {
    "molecule": "C/C(=N/NC(=O)c1cc2ccccc2cc1O)C1C(=O)c2ccccc2C1=O",
    "labelClass": "true (1)"
  },
  {
    "molecule": "COc1ccc(-c2ncn(CCC#N)c2[N+](=O)[O-])cc1",
    "labelClass": "true (1)"
  },
  {
    "molecule": "Cc1ccc(/C(O)=C/C(=O)C(=O)NC23CC4CC(CC(C4)C2)C3)cc1",
    "labelClass": "true (1)"
  },
  {
    "molecule": "CN1C(=O)/C(=C\\c2ccccc2F)Sc2ccc(C(=O)NC3CCN(Cc4ccccc4)CC3)cc21",
    "labelClass": "true (1)"
  },
  {
    "molecule": "CC1CCN(c2nc(-c3ccccc3)cc(C(F)(F)F)n2)CC1",
    "labelClass": "true (1)"
  },
  {
    "molecule": "CC(=O)Oc1ccccc1C1=NN(C(=O)/C=C/c2ccccc2)C(c2ccccc2)C1 (stereo unspecified)",
    "labelClass": "true (1)"
  },
  {
    "molecule": "O=C(CNc1cccc2ccccc12)N/N=C/c1ccc([N+](=O)[O-])o1",
    "labelClass": "true (1)"
  },
  {
    "molecule": "O=S(=O)(Nc1nc2ccccc2nc1Cl)c1ccc2ccccc2c1",
    "labelClass": "false (0)"
  },
  {
    "molecule": "Cc1cc2oc(=O)cc(CN(C)Cc3ccccc3)c2cc1C(C)C",
    "labelClass": "true (1)"
  },
  {
    "molecule": "Cc1ccccc1C(=O)NNC(=S)NC(=O)c1cccs1",
    "labelClass": "true (1)"
  },
  {
    "molecule": "CCCSc1nsc(NC(=O)Nc2ccc(F)cc2F)n1",
    "labelClass": "true (1)"
  },
  {
    "molecule": "N#Cc1c(N)nc(Sc2ccc(Cl)cc2)c(C#N)c1-c1ccccc1Cl",
    "labelClass": "true (1)"
  },
  {
    "molecule": "CCC(C)Nc1nc(N)c([N+](=O)[O-])c(Nc2cc(OC)ccc2OC)n1 (stereo unspecified)",
    "labelClass": "true (1)"
  },
  {
    "molecule": "Cc1c(C(=O)Nc2nc3ccccc3[nH]2)oc2c(Cl)cccc12",
    "labelClass": "true (1)"
  },
  {
    "molecule": "CCc1nc(SCC(=O)N2c3ccccc3CC2C)c2c(C)c(C)sc2n1 (stereo unspecified)",
    "labelClass": "true (1)"
  },
  {
    "molecule": "O=c1cc2oc3cc(O)c(O)cc3c(-c3ccccc3[N+](=O)[O-])c-2cc1O",
    "labelClass": "true (1)"
  },
  {
    "molecule": "O=C(COc1ccc([N+](=O)[O-])cc1)Nc1nc(-c2ccccn2)cs1",
    "labelClass": "true (1)"
  },
  {
    "molecule": "O=C(CCC(=O)Nc1ccc(Br)cc1)N/N=C/c1ccccc1O",
    "labelClass": "true (1)"
  },
  {
    "molecule": "O=C(C[n+]1cnn(CC(=O)c2ccc(Cl)cc2Cl)c1)c1ccc([N+](=O)[O-])cc1",
    "labelClass": "true (1)"
  },
  {
    "molecule": "CC1Oc2cc3c(-c4c(O)cc(O)c5c(O)c6c(cc45)OC(C)C(C)C6=O)c(O)cc(O)c3c(O)c2C(=O)C1C (stereo unspecified)",
    "labelClass": "true (1)"
  },
  {
    "molecule": "Oc1c(Br)cc(Br)cc1/C=N/c1nc2c(s1)CCCC2",
    "labelClass": "true (1)"
  },
  {
    "molecule": "COc1ccc(CN(C)S(=O)(=O)c2nnc(NC(=O)c3ccccc3Br)s2)cc1",
    "labelClass": "true (1)"
  },
  {
    "molecule": "CCCCC[n+]1ccn(C2=C([O-])c3ccccc3C(=O)/C2=N\\S(=O)(=O)c2ccc(Br)cc2)c1",
    "labelClass": "true (1)"
  },
  {
    "molecule": "CC(C)C[C@H](NC(=O)c1nc[nH]c1C(=O)N1CCc2ccccc2C1)C(=O)OCc1ccccc1",
    "labelClass": "true (1)"
  },
  {
    "molecule": "COc1ccccc1-n1c(SCC(=O)Nc2ccc(Br)cc2)nc(O)cc1=O",
    "labelClass": "true (1)"
  },
  {
    "molecule": "O=C(COc1ccc(-c2ccccc2)cc1)N/N=C/c1cc(O)ccc1Br",
    "labelClass": "true (1)"
  },
  {
    "molecule": "CCOC(=O)c1sc(NC(=O)c2cc(-c3ccccc3C)nc3ccccc23)c(C#N)c1C",
    "labelClass": "true (1)"
  }
]
